Source listed as patent US20160185837A1.

Molecular target: T1, rat GIP receptor (rat, UniProt P43219 19-455)
T1 sequence (looked up): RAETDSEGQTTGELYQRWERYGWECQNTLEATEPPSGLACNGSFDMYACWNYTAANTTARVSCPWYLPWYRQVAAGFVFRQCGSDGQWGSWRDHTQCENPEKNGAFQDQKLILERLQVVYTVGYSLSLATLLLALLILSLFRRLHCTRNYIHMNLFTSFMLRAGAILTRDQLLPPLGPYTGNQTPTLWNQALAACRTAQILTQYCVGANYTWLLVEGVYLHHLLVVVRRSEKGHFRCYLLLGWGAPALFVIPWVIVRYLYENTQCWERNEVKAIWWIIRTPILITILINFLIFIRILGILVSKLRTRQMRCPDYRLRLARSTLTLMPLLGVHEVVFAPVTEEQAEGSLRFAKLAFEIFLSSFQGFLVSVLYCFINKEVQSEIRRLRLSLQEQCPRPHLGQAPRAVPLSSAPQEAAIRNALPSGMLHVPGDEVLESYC
Assay: cell-based or functional assay
Task for the reader: assign each of the following binders its reported cAMP EC50.
Numbers only, in nM.

Use the examples below as a reference point.
# binder, cAMP EC50 / nM
records = [
    ("IP260 (Fc fusion) YSEGTFTSDYSKLLEEEAVQLFIEWLVKGPGGGGGSGGGGSGGGGSGGGGSATHTCPPCPAPEF", 0.45),
    ("IP268 (Fc fusion) YSEGTFTSDYSKLLEEEAVRLFIEWLVKGPGGGGGSGGGGSGGGGSGGGGSATHTCPPC", 0.15),
    ("IP264 (Fc fusion) YSEGTFTSDYSKLLEEEAVRLFIEWLVKGKGGGGGSGGGGSGGGGSGGGGSATHTCPPCPAPEF", 0.094),
    ("IP363 (Fc fusion) YSEGTFTSDYRMLKEEEAVRLFIEWLLAGGGGGGSGGGGSGGGGSGGGGSATHTCPPC", 0.045),
]

Query: Would you mind telling me what cAMP EC50 value was observed for IP243 (Fc fusion) YSEGTFTSDYSKLLEEEAQRLFIEWLVKGPAAAGGSGSTASSGSGSATGGGGAATHTCPPCPAPEF ?
Result: 0.091
